Listing of entries alongside the reported half-life.
assayText: Half-lives were estimated from the elimination phase of the blood conc-time curve after oral administration
Assay type: ADME, organism-based
conditionsUsed: whole blood

compound | unit | half-life
CCCN(CCC)C1CCc2cccc(OS(=O)(=O)C(F)(F)F)c2C1 (configuration not stated) | h | 1.5
CCCN(CCC)C1CCc2c(cccc2OS(=O)(=O)C(F)(F)F)C1 (configuration not stated) | h | 1.5

* * *

assayText: Effective dose for half-maximal decrease in the accumulation of 5-hydroxytryptophan (5-HTP) in reserpinized rat brain striatal area by sc administration
Assay type: functional
Below is a list of entries, each paired with its recorded ED50 value.

compound | unit | ED50
CCCN(CCC)C1CCc2ccc(OS(=O)(=O)C(F)(F)F)cc2C1 (centres undefined) | µmol/kg | 34
CCCN(CCC)C1CCc2cccc(OC)c2C1 (centres undefined) | µmol/kg | 0.3
CCCNC1CCc2cccc(OS(=O)(=O)C(F)(F)F)c2C1 (centres undefined) | µmol/kg | 0.8
CCCN(CCC)C1CCc2cccc(OS(=O)(=O)C(F)(F)F)c2C1 (centres undefined) | µmol/kg | 15
